Hello, the source for this data is PubChem BioAssay (NCI), in case you need it.

# System: CAKI-1 renal
# assayRemarks: NCI-60 one-dose screen, 48 h
# experimentalSetup: 10 µM
This is part of a sample that, as a whole, favours compounds with a hit. Of some 83,000 tested, about 20% had one in any assay. The source made the active and inactive calls. How the source made its calls: active means growth percent below 10; inactive means the rest.
Hi! Could you answer with just one of these? active, inactive

Please review the entries below; each comes with its answer.
molecule	qualitativeLabel
COc1ccc(C2CC(c3cc(OC)c(OC)c(OC)c3)=NN2)cc1 (stereo not drawn)	inactive
CCN(CC)c1ccc(/C=C2\SC(=O)C(Nc3nnc(-c4cccnc4SCc4ccccc4)o3)C2=O)cc1 (stereo not drawn)	inactive
CC(C1=C(CN(C(=O)Cc2cn(-c3ccccc3)nc2-c2ccc(Cl)cc2)C(C)C)Cc2ccccc21)c1ccccn1 (stereo not drawn)	inactive
O=[N+]([O-])c1cccc(/C=N/NC(=S)NC23CC4CC(CC(C4)C2)C3)c1	inactive
CCOC(=O)c1sc2ncnc(Nc3ccc4c(cnn4C(=O)Nc4ccccc4)c3)c2c1C	inactive
CCCN(CCC)C(=O)[C@H](CC)[C@@H]1CC[C@@H](C)[C@@H]([C@H](C)[C@@H](O)[C@@H](C)C(=O)[C@H](CC)C2O[C@]3(C=C[C@@H](O)[C@]4(CC[C@@](C)([C@H]5CC[C@](O)(CC)[C@H](C)O5)O4)O3)[C@H](C)C[C@@H]2C)O1 (stereo partly drawn)	active
Nc1nc(Cl)nc2c1ncn2C1O[C@H](CO)[C@@H](O)[C@@H]1F (stereo partly drawn)	active

As a next step, examine the molecule that follows.
Asked: So what was the verdict on "COc1ccc(-c2nn(-c3cccc(Cl)c3)cc2-c2cc(-c3ccccc3)nc(N)n2)cc1" in this test?
Given back: inactive
